# measurementDescription: Unbound fraction in mouse brain
# Format: ADME, tissue-based
readoutLabel: fraction unbound
Form field (numeric): enter value without unit.

Using the record for `CCOc1nc(Nc2ccc(C(=O)N3CCOCC3)cc2OC)nc2[nH]ccc12` , state its measured fraction unbound.
0.01

----------
# measurementDescription: Unbound fraction in Han-Wistar rat brain at 2 mg/kg, po
# Format: ADME, organism-based
readoutLabel: fraction unbound

Supply recorded fraction unbound for `CCOc1nc(Nc2ccc(C(=O)N3CCN4CCC[C@@H]4C3)cc2OC)nc2[nH]ccc12` here.
< 0.005

----------
# system: Leucine-rich repeat serine/threonine-protein kinase 2 (Homo sapiens, UniProt Q5S007)
# Sequence (Q5S007 whole entry): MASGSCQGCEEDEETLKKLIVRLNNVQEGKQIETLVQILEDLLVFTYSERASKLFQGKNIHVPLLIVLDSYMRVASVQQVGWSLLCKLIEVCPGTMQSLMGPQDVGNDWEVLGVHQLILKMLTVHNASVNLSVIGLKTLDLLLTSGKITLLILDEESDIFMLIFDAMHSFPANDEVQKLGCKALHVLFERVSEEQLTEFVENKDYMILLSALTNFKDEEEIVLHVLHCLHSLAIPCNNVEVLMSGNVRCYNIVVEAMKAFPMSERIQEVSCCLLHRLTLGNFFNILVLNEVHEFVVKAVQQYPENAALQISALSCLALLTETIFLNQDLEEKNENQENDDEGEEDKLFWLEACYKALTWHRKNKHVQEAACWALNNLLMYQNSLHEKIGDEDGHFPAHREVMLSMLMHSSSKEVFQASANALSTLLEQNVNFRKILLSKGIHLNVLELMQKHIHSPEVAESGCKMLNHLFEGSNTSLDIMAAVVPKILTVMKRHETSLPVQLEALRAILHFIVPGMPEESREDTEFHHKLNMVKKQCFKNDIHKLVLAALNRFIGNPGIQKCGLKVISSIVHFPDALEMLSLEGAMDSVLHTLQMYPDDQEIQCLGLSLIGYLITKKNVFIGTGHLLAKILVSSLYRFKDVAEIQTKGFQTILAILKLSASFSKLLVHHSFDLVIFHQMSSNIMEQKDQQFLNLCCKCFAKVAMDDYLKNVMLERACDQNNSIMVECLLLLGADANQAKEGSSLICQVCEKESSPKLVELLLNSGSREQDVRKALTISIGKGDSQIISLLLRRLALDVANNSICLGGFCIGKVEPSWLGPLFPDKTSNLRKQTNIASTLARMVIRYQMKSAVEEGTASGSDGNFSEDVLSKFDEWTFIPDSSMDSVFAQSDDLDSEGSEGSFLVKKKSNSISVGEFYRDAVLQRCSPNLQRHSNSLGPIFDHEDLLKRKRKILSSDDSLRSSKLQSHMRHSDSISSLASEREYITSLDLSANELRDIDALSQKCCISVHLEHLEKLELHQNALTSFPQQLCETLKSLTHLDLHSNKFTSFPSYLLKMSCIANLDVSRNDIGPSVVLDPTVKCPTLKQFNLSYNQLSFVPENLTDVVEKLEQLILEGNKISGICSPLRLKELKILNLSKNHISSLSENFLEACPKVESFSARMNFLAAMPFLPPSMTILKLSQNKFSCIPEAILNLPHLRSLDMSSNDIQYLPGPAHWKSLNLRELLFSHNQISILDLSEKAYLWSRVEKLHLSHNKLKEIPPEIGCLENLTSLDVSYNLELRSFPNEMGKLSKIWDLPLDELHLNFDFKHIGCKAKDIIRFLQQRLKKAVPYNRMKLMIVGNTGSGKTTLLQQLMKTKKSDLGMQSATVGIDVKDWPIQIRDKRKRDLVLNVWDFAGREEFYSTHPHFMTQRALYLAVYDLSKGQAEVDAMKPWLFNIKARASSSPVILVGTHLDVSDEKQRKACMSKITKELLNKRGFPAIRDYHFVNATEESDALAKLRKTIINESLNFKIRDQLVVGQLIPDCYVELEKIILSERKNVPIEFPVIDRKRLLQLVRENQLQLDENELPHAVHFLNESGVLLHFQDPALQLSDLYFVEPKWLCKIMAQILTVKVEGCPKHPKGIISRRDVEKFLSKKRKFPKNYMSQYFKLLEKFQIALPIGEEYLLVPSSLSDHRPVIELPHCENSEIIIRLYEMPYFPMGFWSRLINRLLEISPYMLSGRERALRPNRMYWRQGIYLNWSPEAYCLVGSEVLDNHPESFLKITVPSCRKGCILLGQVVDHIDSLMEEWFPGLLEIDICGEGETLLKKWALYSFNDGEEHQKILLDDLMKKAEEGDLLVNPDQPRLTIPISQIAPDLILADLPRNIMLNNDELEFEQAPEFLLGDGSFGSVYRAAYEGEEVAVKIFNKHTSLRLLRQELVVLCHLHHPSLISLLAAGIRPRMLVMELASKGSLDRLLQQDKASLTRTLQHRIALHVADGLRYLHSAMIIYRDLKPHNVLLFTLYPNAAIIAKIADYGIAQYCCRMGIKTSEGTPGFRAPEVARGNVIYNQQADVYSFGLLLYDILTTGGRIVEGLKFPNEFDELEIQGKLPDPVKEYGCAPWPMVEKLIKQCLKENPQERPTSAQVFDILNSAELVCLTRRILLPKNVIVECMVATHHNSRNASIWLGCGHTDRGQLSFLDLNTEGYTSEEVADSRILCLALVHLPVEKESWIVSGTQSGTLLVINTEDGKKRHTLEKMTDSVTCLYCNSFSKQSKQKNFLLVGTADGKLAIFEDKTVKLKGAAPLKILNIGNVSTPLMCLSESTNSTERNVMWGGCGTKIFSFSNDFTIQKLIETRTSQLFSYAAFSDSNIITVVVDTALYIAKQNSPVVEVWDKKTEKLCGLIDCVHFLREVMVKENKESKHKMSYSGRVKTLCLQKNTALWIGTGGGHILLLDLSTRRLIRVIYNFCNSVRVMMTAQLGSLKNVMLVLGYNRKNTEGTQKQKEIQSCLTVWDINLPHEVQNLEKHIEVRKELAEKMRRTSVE
# measurementDescription: Inhibition of recombinant full-length LRRK2 (unknown origin) expressed in SH-SY5Y cells assessed as reduction in Ser935 phosphorylation after 60 mins by Alpha Screen assay
# Type: cell-based
// reported pIC50 for each item listed
Note: pIC50 values are expressed as the negative base-10 logarithm of concentration in M.

Some solved entries appear below for comparison.
testSmiles	pIC50
CCOc1nc(Nc2ccc(C(=O)NCC(C)(C)O)cc2OC)nc2[nH]ccc12	6.90
CCOc1nc(Nc2ccc(C(=O)N3CCN(C)CC3)cc2N(C)C)nc2[nH]ccc12	5.50
CCOc1nc(Nc2ccc(C(=O)N3CCOCC3)cc2OC(C)C)nc2[nH]ccc12	6.20
CCOc1nc(Nc2ccc(C(=O)N3CCN(C)CC3)cc2F)nc2[nH]ccc12	6.80

Tell me its pIC50 given `CCOc1nc(Nc2ccc(C(=O)N3CCOC[C@@H]3C)cc2OC)nc2[nH]ccc12` as the entry.
7.00

Annotate the compound `CCOc1nc(Nc2ccc(C(=O)N3CC4(COC4)C3)cc2OC)nc2[nH]ccc12` with its measured pIC50.
6.80

// fetch pIC50 given entry `CCOc1nc(Nc2ccc(C(=O)N3CCC4(CC3)CN(C)C4)cc2OC)nc2[nH]ccc12`
7.20

For the compound `CCOc1nc(Nc2ccc(C(=O)N3CCC(F)CC3)cc2OC)nc2[nH]ccc12` , give its measured pIC50 value.
6.50

Check the records and state pIC50 for `CCOc1nc(Nc2ccc(C(=O)N3CCN(C)CC3)cc2)nc2[nH]ccc12`
7.10

In one line, give reported pIC50 of the entry `CCOc1nc(Nc2ccc(C(=O)N3CCOCC3)cc2)nc2[nH]ccc12` .
7.20

The measurements presented in this section are drawn from ChEMBL document CHEMBL4715821.
